testedSystem: hERG (KCNH2) (Homo sapiens)
Sequence (Q12809 whole entry): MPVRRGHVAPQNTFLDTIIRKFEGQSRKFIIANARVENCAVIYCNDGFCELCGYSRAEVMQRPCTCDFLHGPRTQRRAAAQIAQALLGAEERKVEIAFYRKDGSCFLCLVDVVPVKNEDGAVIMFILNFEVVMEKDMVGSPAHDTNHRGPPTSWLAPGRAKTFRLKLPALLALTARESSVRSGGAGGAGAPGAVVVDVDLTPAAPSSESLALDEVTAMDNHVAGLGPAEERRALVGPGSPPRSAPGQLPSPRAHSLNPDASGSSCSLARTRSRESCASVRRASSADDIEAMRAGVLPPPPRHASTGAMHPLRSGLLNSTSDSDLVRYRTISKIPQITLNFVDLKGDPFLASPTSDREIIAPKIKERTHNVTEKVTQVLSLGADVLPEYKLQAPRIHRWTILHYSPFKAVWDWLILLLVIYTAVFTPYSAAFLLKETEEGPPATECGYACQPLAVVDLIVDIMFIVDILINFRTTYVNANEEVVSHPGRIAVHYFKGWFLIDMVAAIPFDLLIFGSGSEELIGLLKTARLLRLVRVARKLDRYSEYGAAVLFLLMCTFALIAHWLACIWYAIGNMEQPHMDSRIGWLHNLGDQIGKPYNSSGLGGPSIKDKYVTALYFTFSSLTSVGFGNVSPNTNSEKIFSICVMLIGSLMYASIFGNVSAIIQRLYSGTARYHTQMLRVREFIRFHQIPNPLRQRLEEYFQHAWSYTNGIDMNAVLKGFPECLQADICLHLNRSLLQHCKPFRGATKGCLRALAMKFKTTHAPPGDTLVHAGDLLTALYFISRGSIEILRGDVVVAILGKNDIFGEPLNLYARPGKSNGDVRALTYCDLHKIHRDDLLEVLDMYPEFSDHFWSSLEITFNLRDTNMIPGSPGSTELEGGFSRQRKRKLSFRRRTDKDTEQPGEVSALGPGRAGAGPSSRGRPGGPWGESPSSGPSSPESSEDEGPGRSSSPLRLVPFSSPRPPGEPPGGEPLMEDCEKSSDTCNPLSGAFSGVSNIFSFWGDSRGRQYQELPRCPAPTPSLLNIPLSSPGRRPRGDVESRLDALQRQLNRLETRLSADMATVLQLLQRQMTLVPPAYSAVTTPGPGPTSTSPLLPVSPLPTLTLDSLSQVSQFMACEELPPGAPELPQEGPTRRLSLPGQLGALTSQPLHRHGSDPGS
protocolText: Displacement of [3H]dofetilide from human ERG at 10 uM
measurementParameters: probe [3H]dofetilide
Measured inhibition at 10 µM values are reported for all entries that follow.
Number first, unit second.

// known answers, use as guide
CC(=O)NCC(=O)NCc1cccc(-n2nc(C(C)(C)C)cc2NC(=O)Nc2ccccc2)c1 | -11%
Cc1ccn(CC(=O)NCc2cccc(-n3nc(C(C)(C)C)cc3NC(=O)Nc3ccccc3)c2)n1 | 3%

Form field: reported inhibition at 10 µM of `CC(C)(C)c1cc(NC(=O)Nc2ccccc2)n(-c2cccc(CNC(=O)Cn3ccccc3=O)c2)n1`
9%

====

protocolText: Permeability of the compound by PAMPA method
Assay type: ADME
testReadout: Papp (×10⁻⁶ cm/s)
Hi! Could you send only the number? It should be in ×10⁻⁶ cm/s, unit omitted.

CC(C)(C)c1cc(NC(=O)Nc2ccccc2)n(-c2cccc(CNC(=O)Cn3ccccc3=O)c2)n1 | 12.9

Form field: reported Papp of `Cc1ccn(CC(=O)NCc2cccc(-n3nc(C(C)(C)C)cc3NC(=O)Nc3ccccc3)c2)n1`
4.8

Also `CC(=O)NCC(=O)NCc1cccc(-n2nc(C(C)(C)C)cc2NC(=O)Nc2ccccc2)c1` , if possible.
7.38

====

testedSystem: Mitogen-activated protein kinase 14 (Homo sapiens, UniProt Q16539)
Sequence (Q16539 whole entry): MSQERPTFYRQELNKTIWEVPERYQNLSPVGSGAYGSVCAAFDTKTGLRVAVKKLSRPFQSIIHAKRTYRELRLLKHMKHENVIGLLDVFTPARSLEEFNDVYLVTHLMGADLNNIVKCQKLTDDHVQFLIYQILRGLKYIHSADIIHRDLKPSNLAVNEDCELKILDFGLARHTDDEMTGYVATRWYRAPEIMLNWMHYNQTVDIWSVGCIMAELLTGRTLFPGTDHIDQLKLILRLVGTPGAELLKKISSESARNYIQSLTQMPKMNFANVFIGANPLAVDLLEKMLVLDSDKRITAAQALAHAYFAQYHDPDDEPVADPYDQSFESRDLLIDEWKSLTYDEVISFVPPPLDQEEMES
protocolText: Inhibition of active p38alpha
Measured IC50 values are reported for all entries that follow.

Cc1nccn1CC(=O)NCc1cccc(-n2nc(C(C)(C)C)cc2NC(=O)Nc2ccccc2)c1 | 677 nM
Cc1ccn(CC(=O)NCc2cccc(-n3nc(C(C)(C)C)cc3NC(=O)Nc3ccccc3)c2)n1 | 201 nM
CC(C)(C)c1cc(NC(=O)Nc2ccccc2)n(-c2cccc(CNC(=O)CN3CCCC3=O)c2)n1 | 296 nM
CC(=O)NC1(C(=O)NCc2cccc(-n3nc(C(C)(C)C)cc3NC(=O)Nc3ccccc3)c2)CCCC1 | 4550 nM

Form field: reported IC50 of `CC(C)(C)c1cc(NC(=O)Nc2ccccc2)n(-c2cccc(CNC(=O)CCC(=O)O)c2)n1`
393 nM

Also `CC(C)(C)c1cc(NC(=O)Nc2ccccc2)n(-c2cccc(CNC(=O)CN3CCOC3=O)c2)n1` , if possible.
599 nM

Also `CC(C)(C)c1cc(NC(=O)Nc2ccccc2)n(-c2cccc(CNC(=O)CN)c2)n1` , if possible.
2300 nM

Also `CC(C)(C)c1cc(NC(=O)Nc2ccccc2)n(-c2cccc(CNC(=O)CNC(=O)c3ccco3)c2)n1` , if possible.
88 nM

Also CC(C)(C)c1cc(NC(=O)Nc2ccccc2)n(-c2cccc(CNC(=O)C3CC=CC[C@H]3C(=O)O)c2)n1 (some centres undefined) , if possible.
737 nM

Also `CC(C)(CC(=O)NCc1cccc(-n2nc(C(C)(C)C)cc2NC(=O)Nc2ccccc2)c1)C(=O)O` , if possible.
3680 nM

Also `CC(C)(C)c1cc(NC(=O)Nc2ccccc2)n(-c2cccc(CNC(=O)Cn3ccnc3)c2)n1` , if possible.
536 nM

Also CC(=O)NC(C)C(=O)NCc1cccc(-n2nc(C(C)(C)C)cc2NC(=O)Nc2ccccc2)c1 (centres undefined) , if possible.
480 nM

Also `CC(=O)NCC(=O)N(C)Cc1cccc(-n2nc(C(C)(C)C)cc2NC(=O)Nc2ccccc2)c1` , if possible.
1600 nM

Also `CC(=O)NCC(=O)NCc1cccc(-n2nc(C(C)(C)C)cc2NC(=O)Nc2ccccc2)c1` , if possible.
34 nM

Also `CC(C)(C)c1cc(NC(=O)Nc2ccccc2)n(-c2cccc(CNC(=O)Cn3ccccc3=O)c2)n1` , if possible.
63 nM

Also `CC(C)(C)c1cc(NC(=O)Nc2ccccc2)n(-c2cccc(CNC(=O)Cn3cccn3)c2)n1` , if possible.
135 nM

Also `CC(C)(C)c1cc(NC(=O)Nc2ccccc2)n(-c2cccc(CNC(=O)CNS(C)(=O)=O)c2)n1` , if possible.
649 nM

Also `COC(=O)NCC(=O)NCc1cccc(-n2nc(C(C)(C)C)cc2NC(=O)Nc2ccccc2)c1` , if possible.
287 nM

Also `Cc1cc(C(=O)NCC(=O)NCc2cccc(-n3nc(C(C)(C)C)cc3NC(=O)Nc3ccccc3)c2)no1` , if possible.
243 nM
